target: Polyunsaturated fatty acid lipoxygenase ALOX15 (Homo sapiens); assay: Inhibition of 15-LO-mediated 15-H(P)ETE production in human polymorphonuclear leukocytes assessed as remaining activity preincubated at 10 uM for 15 mins by HPLC analysis; assay type: cell-based
QUANTITY_MEASURED: Activity (%)

SMILES_CODE	UOM	Activity
CCOC(=O)c1c(CSc2ccccc2)n(C)c2ccc(O)cc12	%	130
CCOC(=O)c1c(CSc2ccc(F)cc2F)n(C)c2ccc(O)cc12	%	102
CCOC(=O)c1c(CSc2c(Cl)cccc2Cl)n(C)c2ccc(O)cc12	%	136
CCOC(=O)c1c(CSc2cccc(Cl)c2)n(C)c2ccc(O)cc12	%	114
CCOC(=O)c1c(CSc2c(C)cc(C)cc2C)n(C)c2ccc(O)cc12	%	33
CCOC(=O)c1c(CSc2cc(C)cc(C)c2)n(C)c2ccc(O)cc12	%	150
CCOC(=O)c1c(CSc2ccc(C(F)(F)F)cc2)n(C)c2ccc(O)cc12	%	114
CCOC(=O)c1c(CSc2ccc(OC)cc2)n(C)c2ccc(O)cc12	%	128

a = CCOC(=O)c1c(CSc2ccc(F)cc2)n(C)c2ccc(O)cc12
b = N#C/C(=C\c1ccc(O)c(O)c1)C(=O)OC/C=C/c1ccccc1
Smaller Activity value? Options are a and b Refer to your chosen item by its label in the answer.
b
